- ASSAYED SYSTEM: recombinant human DPP9 (Homo sapiens, UniProt Q86TI2)
- Construct: purchased R&D Systems
- Sequence (Q86TI2 whole entry): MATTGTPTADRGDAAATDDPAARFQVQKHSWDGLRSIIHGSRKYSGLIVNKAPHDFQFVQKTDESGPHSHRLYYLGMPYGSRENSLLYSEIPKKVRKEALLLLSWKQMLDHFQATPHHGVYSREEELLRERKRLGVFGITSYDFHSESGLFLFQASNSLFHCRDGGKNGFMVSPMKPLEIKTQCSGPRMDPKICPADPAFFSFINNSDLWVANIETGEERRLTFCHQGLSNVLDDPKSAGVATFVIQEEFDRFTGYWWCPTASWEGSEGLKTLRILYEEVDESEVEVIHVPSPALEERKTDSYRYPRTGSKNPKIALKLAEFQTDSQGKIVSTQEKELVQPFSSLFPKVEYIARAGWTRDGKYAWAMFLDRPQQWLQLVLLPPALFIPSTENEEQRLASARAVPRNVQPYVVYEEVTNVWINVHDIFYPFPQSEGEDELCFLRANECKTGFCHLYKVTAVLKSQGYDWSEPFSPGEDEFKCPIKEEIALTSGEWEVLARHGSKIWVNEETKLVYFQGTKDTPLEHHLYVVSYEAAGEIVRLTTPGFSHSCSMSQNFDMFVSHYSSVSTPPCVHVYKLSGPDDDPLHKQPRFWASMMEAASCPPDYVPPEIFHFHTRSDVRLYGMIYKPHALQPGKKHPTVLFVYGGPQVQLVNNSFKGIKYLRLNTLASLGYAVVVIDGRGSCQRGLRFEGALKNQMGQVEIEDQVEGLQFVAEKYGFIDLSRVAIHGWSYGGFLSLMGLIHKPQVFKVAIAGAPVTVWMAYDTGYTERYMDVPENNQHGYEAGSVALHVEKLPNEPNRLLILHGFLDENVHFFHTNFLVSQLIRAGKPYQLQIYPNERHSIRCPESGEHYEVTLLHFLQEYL
- PROTOCOL DESCRIPTION: DPP9 inhibition, fluorogenic substrate H-Gly-Pro-AMC
- Type: biochemical
- APPLIED CONDITIONS: 25° C., H-Gly-Pro-AMC substrate
pIC50: −log10 of the molar value.
Recorded pIC50 for the following compounds

For orientation, consider the following solved cases.
N#C[C@@H]1CCCN1C(=O)CN1CC[C@H](NC(=O)c2coc3c(F)cc(F)cc23)C1 [Example 51] :: < 4.00
COc1ccc2c(C(=O)N[C@H]3CCN(CC(=O)N4CCC[C@H]4C#N)C3)coc2c1 [Example 54] :: < 4.00

Note: attention shifts to another entry.
### Prompt # lookup: pIC50 of N#C[C@@H]1CCCN1C(=O)CN1CC[C@@H](Nc2cnc3ccccc3c2)C1 [Example 17]
### Response < 4.00
